Where do these numbers come from? They come from patent US11613525B2.

Target: human STING (HAQ) (Homo sapiens, UniProt Q86WV6, G230A/H232R/R293Q)
Sequence (Q86WV6 whole entry G230A/H232R/R293Q, looked up): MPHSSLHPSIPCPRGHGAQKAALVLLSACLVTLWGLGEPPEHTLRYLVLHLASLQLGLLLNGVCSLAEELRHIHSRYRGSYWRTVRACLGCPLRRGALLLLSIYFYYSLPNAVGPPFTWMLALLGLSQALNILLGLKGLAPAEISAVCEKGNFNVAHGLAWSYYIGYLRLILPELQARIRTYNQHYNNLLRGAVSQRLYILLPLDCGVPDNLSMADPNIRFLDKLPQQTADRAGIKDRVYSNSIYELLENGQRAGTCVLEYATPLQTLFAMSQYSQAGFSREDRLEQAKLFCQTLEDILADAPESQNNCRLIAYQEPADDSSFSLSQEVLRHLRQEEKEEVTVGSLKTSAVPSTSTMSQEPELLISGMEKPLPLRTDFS
Settings: read-out: SPR (HAQ) KD; 25° C.
assay-endpoint: pKd
Scale explanation: pKd corresponds to minus log10 of a concentration expressed in moles per litre.

Data request: # query: pKd of entry NC(=O)c1ccc(OCc2c(C(=O)O)sc3cccc(C(F)(F)F)c23)cc1
Data returned: 5.87

Data request: # query: pKd of entry NC(=O)c1ccc(OCc2c(C(=O)O)sc3cccc(F)c23)cc1Cl
Data returned: 4.68

Data request: # query: pKd of entry NC(=O)c1ccc(CCc2c(C(=O)O)sc3cccc(F)c23)cc1
Data returned: 3.27

Data request: # query: pKd of entry NC(=O)c1ccc(OCc2c(C(=O)O)sc3cccc(Cl)c23)c(Cl)c1
Data returned: 4.79

Data request: # query: pKd of entry COc1cc(C(N)=O)cc(C)c1OCc1c(C(=O)O)sc2cccc(Cl)c12
Data returned: 4.17

---

Biological target: human STING (HAQ) (Homo sapiens, UniProt Q86WV6, G230A/H232R/R293Q)
Details: read-out: SPR (HAQ) KD; 25° C.
Exercise: state measured Kd for each of the compounds provided.
Please state the figure in µM; there is no need to write the unit.

Data request: # query: Kd of entry CCOC(=O)c1sc2cccc(F)c2c1CCc1ccc(C(N)=O)cc1
Data returned: 3000

Data request: # query: Kd of entry NC(=O)c1ccc(OCc2c(C(=O)O)sc3c(Cl)cccc23)cc1
Data returned: 5.95

Data request: # query: Kd of entry Nc1noc2cc(OCc3c(C(=O)O)sc4cccc(Cl)c34)ccc12
Data returned: 16.3

Data request: # query: Kd of entry COc1cc(C(N)=O)cc(OC)c1OCc1c(C(=O)O)sc2cccc(Cl)c12
Data returned: 80.5

---

Target: huSTING (HAQ) (Homo sapiens (Human), UniProt Q86WV6, G230A/H232R/R293Q/R71H)
Sequence (Q86WV6 whole entry R71H/G230A/H232R/R293Q): as the sequence (Q86WV6 whole entry G230A/H232R/R293Q, looked up) above, with R71H counted along it
Assay: THP-1 reporter cell line assay, THP-1 STING Lucia ISG cells
Type: cell-based
Conditions: THP-1 STING Lucia ISG cells; modified method, top concentration 40 μM, pin tool, EnVision; read-out: Cellular EC50 huSTING (HAQ)
Kindly apply the following: TRUE if EC50 is less than 50 nM, FALSE in every other case.

Data request: Problem: For the compound COc1cccc2sc(C(=O)OC3CCCC3)c(COc3ccc(C(N)=O)cc3)c12 [Example 155] , is EC50 under 50 nM?
Data returned: FALSE

Data request: Problem: For the compound CCOC(=O)c1sc2cccc(OCC)c2c1COc1c(F)cc(C(N)=O)cc1F [Example 94] , is EC50 under 50 nM?
Data returned: FALSE

Data request: Problem: For the compound CC(C)(C)C(=O)OCOC(=O)c1sc2cccc(C3CC3)c2c1COc1c(F)cc(C(N)=O)cc1F [Example 124] , is EC50 under 50 nM?
Data returned: FALSE

Data request: Problem: For the compound CN1CC(OC(=O)c2sc3cccc(Cl)c3c2COc2c(F)cc(C(N)=O)cc2F)C1 [Example 164] , is EC50 under 50 nM?
Data returned: TRUE

Data request: Problem: For the compound CCOC(=O)c1sc2cccc(Br)c2c1COc1c(F)cc(C(N)=O)cc1F [Example 89] , is EC50 under 50 nM?
Data returned: TRUE

Data request: Problem: For the compound COc1nccc2sc(C(=O)O)c(COc3c(F)cc(C(N)=O)cc3CO)c12 [Example 172] , is EC50 under 50 nM?
Data returned: FALSE

Data request: Problem: For the compound CC(C)[C@H](NC(=O)OC(C)(C)C)C(=O)OCOC(=O)c1sc2cccc(Cl)c2c1COc1c(F)cc(C(N)=O)cc1F [Example 133] , is EC50 under 50 nM?
Data returned: FALSE

Data request: Problem: For the compound CCOC(=O)c1sc2c(C)ccc(Cl)c2c1COc1c(F)cc(C(N)=O)cc1F [Example 144] , is EC50 under 50 nM?
Data returned: TRUE

Data request: Problem: For the compound Cc1ccc2sc(C(=O)OCOC(=O)C(C)(C)C)c(COc3ccc(C(N)=O)cc3)c2c1Cl [Example 174] , is EC50 under 50 nM?
Data returned: FALSE

Data request: Problem: For the compound CCOC(=O)c1sc2c(F)ccc(Br)c2c1COc1c(F)cc(C(N)=O)cc1F [Example 116] , is EC50 under 50 nM?
Data returned: TRUE

Data request: Problem: For the compound NC(=O)CNC(=O)c1sc2cccc(Cl)c2c1COc1c(F)cc(C(N)=O)cc1F [Example 148] , is EC50 under 50 nM?
Data returned: FALSE

Data request: Problem: For the compound CC(OC(=O)OC(C)(C)C)OC(=O)c1sc2cccc(Cl)c2c1COc1c(F)cc(C(N)=O)cc1F (stereo not shown) [Example 129] , is EC50 under 50 nM?
Data returned: FALSE

---

Molecular target: huSTING (HAQ) (Homo sapiens (Human), UniProt Q86WV6, G230A/H232R/R293Q/R71H)
Assay: THP-1 reporter cell line assay, THP-1 STING Lucia ISG cells
Assay type: cell-based
Details: THP-1 STING Lucia ISG cells; modified method, top concentration 40 μM, pin tool, EnVision; read-out: Cellular EC50 huSTING (HAQ)
Structures can show the parent of a compound that is named as a salt.
assay-endpoint: pEC50
Scale explanation: pEC50 corresponds to minus log10 of a concentration expressed in moles per litre.

Data request: # query: pEC50 of entry COC(=O)NCCOC(=O)c1sc2cccc(Cl)c2c1COc1c(F)cc(C(N)=O)cc1F [Example 160]
Data returned: 7.46

Data request: # query: pEC50 of entry COc1cccc2sc(C(=O)OC(C)C)c(COc3ccc(C(N)=O)cc3)c12 [Example 154]
Data returned: 6.35

Data request: # query: pEC50 of entry NC(=O)c1cc(F)c(OCc2c(C(=O)OCCN3CCOCC3)sc3cccc(Cl)c23)c(F)c1 [Example 137]
Data returned: 7.68

Data request: # query: pEC50 of entry CC(C)[C@H](N)C(=O)OCOC(=O)c1sc2cccc(Cl)c2c1COc1c(F)cc(C(N)=O)cc1F [Example 152, trifluoroacetate salt]
Data returned: 6.01

Data request: # query: pEC50 of entry CCOC(=O)c1sc2cccc(Cl)c2c1COc1ccc(C(N)=O)c(COC)c1 [Example 150]
Data returned: 6.26

Data request: # query: pEC50 of entry CCOC(=O)c1sc2cccc(Cl)c2c1COc1ccc(C(N)=O)c(-c2cn[nH]c2)c1 [Example 151]
Data returned: 5.74

Data request: # query: pEC50 of entry CC(=O)N[C@H](C(=O)OCOC(=O)c1sc2cccc(Cl)c2c1COc1c(F)cc(C(N)=O)cc1F)C(C)C [Example 139]
Data returned: 7.44

Data request: # query: pEC50 of entry COCCCOC(=O)c1sc2cccc(Cl)c2c1COc1c(F)cc(C(N)=O)cc1F [Example 162]
Data returned: 7.39

Data request: # query: pEC50 of entry CC(C)(C)OC(=O)OCOC(=O)c1sc2cccc(Cl)c2c1COc1c(F)cc(C(N)=O)cc1F [Example 130]
Data returned: 7.22

Data request: # query: pEC50 of entry CCOC(=O)c1sc2cccc(Cl)c2c1COc1ccc(C(N)=O)c(OC)c1 [Example 97]
Data returned: 5.84

Data request: # query: pEC50 of entry CCC(=O)OC(OC(=O)c1sc2cccc(Cl)c2c1COc1c(F)cc(C(N)=O)cc1F)C(C)C (stereo not drawn) [Example 125]
Data returned: 7.07

Data request: # query: pEC50 of entry CCOC(=O)c1sc2c(O)ccc(Cl)c2c1COc1c(F)cc(C(N)=O)cc1F [Example 147]
Data returned: 7.19

Data request: # query: pEC50 of entry CCOC(=O)c1sc2cncc(Cl)c2c1COc1c(F)cc(C(N)=O)cc1F [Example 170]
Data returned: 6.72

Data request: # query: pEC50 of entry COc1cccc2sc(C(=O)OCc3ccccc3)c(COc3ccc(C(N)=O)cc3)c12 [Example 156]
Data returned: 6.20

Data request: # query: pEC50 of entry NC(=O)c1ccc(OCc2c(C(=O)NCCc3ccccc3)sc3cccc(Br)c23)cc1 [Example 167]
Data returned: 4.63

Data request: # query: pEC50 of entry COC(=O)c1sc2cccc(F)c2c1COc1ccc(C(N)=O)cc1 [Example 141]
Data returned: 5.75

Data request: # query: pEC50 of entry CC(=O)OC(C)OC(=O)c1sc2cccc(Cl)c2c1COc1c(F)cc(C(N)=O)cc1F (stereo not drawn) [Example 134]
Data returned: 7.38

Data request: # query: pEC50 of entry CCOC(=O)c1sc2cccc(OC)c2c1COc1c(F)cc(C(N)=O)cc1F [Example 165]
Data returned: 6.90

Data request: # query: pEC50 of entry CCOC(=O)c1sc2c(Br)ccc(Cl)c2c1COc1c(F)cc(C(N)=O)cc1F [Example 99]
Data returned: 7.66

Data request: # query: pEC50 of entry CCOC(=O)c1sc2cccc(COC)c2c1COc1c(F)cc(C(N)=O)cc1F [Example 115]
Data returned: 6.20

Data request: # query: pEC50 of entry CC(OC(=O)c1sc2cccc(Cl)c2c1COc1c(F)cc(C(N)=O)cc1F)OC(=O)C(C)C (stereo not drawn) [Example 135]
Data returned: 7.19

Data request: # query: pEC50 of entry CCOC(=O)c1sc2c(COC)ccc(Cl)c2c1COc1c(F)cc(C(N)=O)cc1F [Example 146]
Data returned: 7.39

Data request: # query: pEC50 of entry CC(C)OC(=O)OC(C)OC(=O)c1sc2cccc(Cl)c2c1COc1c(F)cc(C(N)=O)cc1F (stereo not drawn) [Example 132]
Data returned: 7.01

Data request: # query: pEC50 of entry NC(=O)c1ccc(OCc2c(C(=O)NCc3ccccc3)sc3cccc(Br)c23)cc1 [Example 166]
Data returned: 5.00

Data request: # query: pEC50 of entry CCOC(=O)c1sc2ccnc(Cl)c2c1COc1c(F)cc(C(N)=O)cc1F [Example 91]
Data returned: 6.57

Data request: # query: pEC50 of entry CCOC(=O)c1sc2ccnc(OC)c2c1COc1c(F)cc(C(N)=O)cc1F [Example 102]
Data returned: 7.28

Data request: # query: pEC50 of entry CN(C)C(=O)OCOC(=O)c1sc2cccc(Cl)c2c1COc1c(F)cc(C(N)=O)cc1F [Example 138]
Data returned: 7.85

Data request: # query: pEC50 of entry COc1cccc2sc(C(=O)OCOC(=O)C(C)(C)C)c(COc3c(F)cc(C(N)=O)cc3F)c12 [Example 123]
Data returned: 7.31

Data request: # query: pEC50 of entry CCOC(=O)c1sc2cccc(C3CC3)c2c1COc1c(F)cc(C(N)=O)cc1F [Example 142]
Data returned: 6.74

Data request: # query: pEC50 of entry NC(=O)c1cc(F)c(OCc2c(C(=O)O)sc3cccc(Cl)c23)c(CO)c1 [Example 111]
Data returned: 4.79

Data request: # query: pEC50 of entry CCC(=O)OC(OC(=O)c1sc2c(F)ccc(Br)c2c1COc1c(F)cc(C(N)=O)cc1F)C(C)C (stereo not drawn) [Example 140]
Data returned: 7.34
